assay: yeast display, Sf9 membrane polyspecificity reagent, FACS + sequencing; frameworks hold sequencing errors
Reported Property: polyreactivity (PSR sort gate)

sequence_code=QVQHVESGGGLVQAGGSLRLSCAASGFIFSWNAMGWYRQAPGKERELVAGISWSGGSTYYADSVKGRFTISRDNAKNTVYLQMNRLKPEDTAVYYCAKEPSVGTGGVYRYGRGDYWGQGTQVTVSS reported_property="polyreactivity (PSR sort gate)" value_observed="low polyreactivity"
sequence_code=QVQLVESGGGLVQAGGSLRLSCAASGRILDYNAMGWYRQAPGKERELVADISGSGDSTYYADSVKGRFTISRDNAKNTVYLQMNSLKPEDTAVYYCNRQTVRPHSRAGYDYWGQGTQVTVSS reported_property="polyreactivity (PSR sort gate)" value_observed="low polyreactivity"

###

experiment: yeast display, Sf9 membrane polyspecificity reagent, FACS + sequencing; frameworks hold sequencing errors
Reported Property: polyreactivity (PSR sort gate)

sequence_code=QVQLVESGGGLVQAGGSLRLSCAASGSTFPVYAMGWYRQAPGKERELVAAITSGGSTYYADSVKGRFTISRDNAKNTVYLQMNSLKPEDTAVYYCAAEDSSPAYNHWGHGTQVTVSS reported_property="polyreactivity (PSR sort gate)" value_observed="low polyreactivity"
sequence_code=QVQLQESGGGLVKAGGSLRLSCAASGNISPRDAMGWYRQAPGEERDLVASNPYSAITYYADGVKGRYTISRDNAKNTVYLQMNSLKPEDTEVYYCAVYQFTYAVFPAYWGQGSQVTVSS reported_property="polyreactivity (PSR sort gate)" value_observed="low polyreactivity"

###

assay: yeast display, Sf9 membrane polyspecificity reagent, FACS + sequencing; frameworks hold sequencing errors
Reported Property: polyreactivity (PSR sort gate)

sequence_code=QVQLVESGGGLVQAGGSLRLSCAASGSTFGVNAMGWYRQAPGKERELVAAISSSGSSTYADSVKGRFTISRDYAKNTVYLQMNSLKPEYTGVYYCNKTTLLTVEYDYWGQGPQVTVSS value_observed="low polyreactivity"
sequence_code=QVQLVESVGGLVQAGGRLRLSCAASGSIFWFNAMGWYRQAPGKEREFVASISRSGGTTYYADSVKGRFTISRDNAKNTVYLQMNSLKPEDTAVYYCNARAYGNGLGTGYFGNHRYDYWGQGTQVTVSS value_observed="low polyreactivity"

###

test: yeast display, Sf9 membrane polyspecificity reagent, FACS + sequencing; frameworks hold sequencing errors
Reported Property: polyreactivity (PSR sort gate)

Example cases with answers are listed next.
sequence_code=QVQLVESGGGLVQAGGSLRLSCAASGRIFVPNAMGWYRPAPGKERELVAAISLRGGSTYYADSVKGRFTISRDNAKYTVYLQMNSLKPEDTAVYYCGWAYRYPHDYWGQGTQVTVSS value_observed="high polyreactivity"
sequence_code=QVQLVESGGCLVQAGGSLRLSCAASGSIFGGNAMGWSRQAPGKEREFVAAITVSDGSTYYADSVKGRFTISRDNAKKTVYLQMNSLKPEDTAVYYCAAGGFYYPHYDYWGQGTQVTVSS value_observed="low polyreactivity"
sequence_code=QVQLVESGGGLVQAGGSLRLSCAASGFIFATNAMGWYRQAPGKERELGASISSGDNTNYADSVKGRFTISRDNAKNTVYLQMNSLKPEHTAVYYCAAANKGPDQADYHYDQWGEYEYWGQGTQVTVSS value_observed="low polyreactivity"
sequence_code=QVQLVESGGGLVQAGGSLRLSCAASGFIFDLYAMGWYRQAPGKERELVAAITYSGGSTYYADSVKGRFTISRDNAKNTVYLQMNSLKPEDTAVYYCATVEKFYEYDHWGQGTQVTVSS value_observed="low polyreactivity"
sequence_code=QVQLVESGGGLVQAGGSLRLSCAASGSTFDNYAMGWYRQAPGKERELVAVITQSGGITFYADSVKGRFTISRDNAKNTVYLQMNSLKPEDTAVYYCNVELDRSWYYYWGQGTQVTVSS value_observed="low polyreactivity"

Identify the reported polyreactivity (PSR sort gate) for the following entry. QVQLVESGGGLVQAGGSLRLSCAASGFTSGRNTMGWYRQAPGKERELVAAISSSGGRTYYADSVKGRFTISRDNAKKTVYLQKHRLKAEDPAVYYCNVAGAIKRTIGDYEYWGQGTQVTVSS high polyreactivity

Find the measured polyreactivity (PSR sort gate) of QVHLVESGGGLVQAGGSLRLSCSASGSILKYYAMGWYRQAPGKERELVAAISRSGGSTYYADSVKGRFTISRDNAKNTVYLHMNSLKPEDTAVYYCAAYYNFPYHGSDYWGQGTEVTVSS and report it. high polyreactivity

Report polyreactivity (PSR sort gate) for QVHHVESGGGLVQAGGSLRLSCAASGFTFDLYATVLSRQAPRKERELVAAITWRGGSTYYADSVKGRFAISRDNAKNTVYLQMNSLQPEDTAVYYCAADYVIVDDAWLITVEMDSWGQGTQVTVSS low polyreactivity

For the sequence QLQLVESGGGLVQAGGSLRLSCAASGFIFDSYAMGWYRQAPGKERELVAAISWSGSSTYYADSVKGRFTISRDNAKNTVFLQMNSLKPEDTAVYYCGALVYPYWGGSMYYWGQGTQVTVSS , report polyreactivity (PSR sort gate). high polyreactivity

State its polyreactivity (PSR sort gate) for this sequence: QVQLVESGGGLVQAGGSLRLSCAASGRTFGYYAMGWYRTAPGKERELVAAIRSTGSTNYADSVKGRFTISRDNAKNTVYLQMNSLKPEDTAVYYCNAKRRFRYDYWGQGTQVTVSS low polyreactivity

Quote polyreactivity (PSR sort gate) reported for QVQLVESGGGLVQAGGSLRLSCAASGSARYAMGWYRQAPGKERELVAAISRRGGSTFYADSVKGRFTISRDNAKNTVYLQMHSLKPEDTAVYYCAADGRISYDYWGQGTQVTVSS please. low polyreactivity

###

assay: yeast display, Sf9 membrane polyspecificity reagent, FACS + sequencing; frameworks hold sequencing errors
Reported Property: polyreactivity (PSR sort gate)

sequence_code=QVQLVESGGGLVQAGGSLRLSCAASGRIIGFNAMGWYIQAPAKERELVASIRTTGGSTRYADSVKWRFTISRDNATNTVYLQMNSLKPEDTAVYYCADRWCKTLWQYNYWGQGTQVTVSS value_observed="high polyreactivity"
sequence_code=QVQLVESGGGLVQAGGSLRLSSAASGSIFYRYAMGWYRQAPGKERELVAVISRGGSTNYADSVKGRFTISRDNAKNTVYLQMNSLKPEDTAVYYCAAGGYSKGDYWGQGTQVTVSS value_observed="high polyreactivity"

###

assay: yeast display, Sf9 membrane polyspecificity reagent, FACS + sequencing; frameworks hold sequencing errors
Reported Property: polyreactivity (PSR sort gate)

Worked cases, answers included:
sequence_code=QVQLVESGGCLVQAGGSLRLICAASGLIFTGNAMGWYRQAPGKERELVAAINYSGGSTYYADSVKWRFTISRDNAKNTVSLQLNSLKAEDTAVYYCAAGGKSRSYYWGQGTQVTVSS reported_property="polyreactivity (PSR sort gate)" value_observed="high polyreactivity"
sequence_code=QVQLVESGGGLVQAGGSLRLSCAASGSTSQVNDMGWYRQAPGKERELVAAISSTGDRTYYADSVKGRFTISRDNAKNTVYLQMNSLKPEDTAVYYCNADLTSYYEEDERNDDDYWGQGTQVTVSS reported_property="polyreactivity (PSR sort gate)" value_observed="low polyreactivity"
sequence_code=QVQLVESGGGVVQAGGSLRLTCAASGRTFYVYAMGWYRQAPGKEREFVAAITSSGGSTYYADSVKGRFTISRDNAKNTVYLQMNSLNPEDTAVYYSDAEWSTPSYVGFADGFEYWGQGTQVTVSS reported_property="polyreactivity (PSR sort gate)" value_observed="low polyreactivity"
sequence_code=HVQLVESGGGLVQAGGSLRLSCAASGSTFTTNVRGWYRQAPGKERELVAAISWNGASTNYADSVKGRFTISRDNAKNTVYLHMNSLNPEDTAVYYCAADVTGLVWDSYYYYFLYEYEYWGQGTQVTVSS reported_property="polyreactivity (PSR sort gate)" value_observed="high polyreactivity"
sequence_code=QVQLVESGGGLVQAGGSLRLSCAASGRTINRYAMGWYRQAPGKERELVAAISTSGGTTYYADSVKGRFTISRDNAKNTVYLQMNSLKPEDSAVYYCAAVARRGSYLGQRLDYWGQGTQVTVSS reported_property="polyreactivity (PSR sort gate)" value_observed="high polyreactivity"
sequence_code=QFQLVESGGGLVQAGGSLGLSCAASGRSFAQYTMGWYRQAPGKERELVAAISWSGTSTYYADSVKGRFTISRDNAKNTVSLQMNSLKPEDTAVYYCAALGRYSVEYGYWGQGTQVTVSS reported_property="polyreactivity (PSR sort gate)" value_observed="high polyreactivity"

Give the value of polyreactivity (PSR sort gate) reported for the following: QVQLVESGGGLVQAGGSLRLSCAASGRIFKGYAMGWYRQAPGKERELVAAITWRGGTTYYADSVKGRFTISRDNAKNTVYLQMNSLKPEDTAVYYCAVSGKTAHSPQRYYYWGQGTQVTVSS high polyreactivity

Answer with the recorded polyreactivity (PSR sort gate) for the sequence listed here: QVQLVESGGGLVQAGGSLRLSCAASGSTFGYYAMGWYRQAPGKERELVAAISYRSGSTYYADSVKGRFTISRDNAKNTVYLQMNSLKPEDTAVYYCAAVIQGQQRYEYWGQGTQVTVSS high polyreactivity

Supply measured polyreactivity (PSR sort gate) of QDQLVESGGGLDQARGSLRLSCAACGSTFPRYAMGWSRQAPGKERELVAAITASGGSTYYADSVKGRFTISRDNAKNPVYLQMNSLKPEDTAVYYCATPSLYTGYDYWGQGTQVTVSS in your reply. low polyreactivity

Fill in reported polyreactivity (PSR sort gate) for this entry: QVQLVESGGGLVQAGGSLRLSCAASGFTIWAYTMGCYRQAPGKEREFVADITSRGGSTFYADSVKGRFTISRDNAKNTVYLQMNSLKPEDTAVDYCAAEGFDTRMYYWGQGTQVTVSS high polyreactivity

Could you please provide reported polyreactivity (PSR sort gate) for QVQLVESGGGLVQAGGSLRLICAASGRIFLGYAMGWYRQAPGKERELVARITLIGGGTNYADSVKGRFTISRDNAKNTVYLQMNSLKPVDTAVYYCAAKSPLRPWWVGAVSGNYWGQGTQVTVSS ? Thanks! low polyreactivity
